systemTested: FAAH (Mus musculus, UniProt O08914)
Construct: Proteomes (mouse brain membrane fraction or cell lysates); from tissue; host or cells: mouse brain membrane fraction (or cell lysates, not specified)
runDescription: In vitro competitive activity-based protein profiling (gel-based, FP-Rh or HT-01 probe)
Type: biochemical
condition: 10 μM inhibitor; read-out: % Inhibition at 10 μM, B = FAAH
Below, each entry is listed with its recorded inhibition at 10 µM.

In: Which inhibition at 10 µM value is on record for CN(CCN(C)C(=O)n1cc(C#N)cn1)C(=O)c1ccccc1 [Example 182] ?
Out: > 75%

In: Which inhibition at 10 µM value is on record for O=C(N1CCN(c2ccccc2N2CCOCC2)CC1)n1cc(C(F)(F)F)cn1 [Example 236] ?
Out: > 75%

In: Which inhibition at 10 µM value is on record for O=C(N1CCN(C(c2ccc(Cl)cc2)c2ccc(Cl)cc2)CC1)n1cc(-c2ccccc2)cn1 [Example 119] ?
Out: < 25%

In: Which inhibition at 10 µM value is on record for CC(C)(C)OC(=O)N1CCCN(C(=O)n2cccn2)CC1 [Example 25] ?
Out: < 25%

###

Below, each entry is listed with its recorded inhibition at 1 µM.
systemTested: FAAH (Mus musculus, UniProt O08914)
Construct: Proteomes (mouse brain membrane fraction or cell lysates); from tissue; host or cells: mouse brain membrane fraction (or cell lysates, not specified)
Sequence (O08914 1-579): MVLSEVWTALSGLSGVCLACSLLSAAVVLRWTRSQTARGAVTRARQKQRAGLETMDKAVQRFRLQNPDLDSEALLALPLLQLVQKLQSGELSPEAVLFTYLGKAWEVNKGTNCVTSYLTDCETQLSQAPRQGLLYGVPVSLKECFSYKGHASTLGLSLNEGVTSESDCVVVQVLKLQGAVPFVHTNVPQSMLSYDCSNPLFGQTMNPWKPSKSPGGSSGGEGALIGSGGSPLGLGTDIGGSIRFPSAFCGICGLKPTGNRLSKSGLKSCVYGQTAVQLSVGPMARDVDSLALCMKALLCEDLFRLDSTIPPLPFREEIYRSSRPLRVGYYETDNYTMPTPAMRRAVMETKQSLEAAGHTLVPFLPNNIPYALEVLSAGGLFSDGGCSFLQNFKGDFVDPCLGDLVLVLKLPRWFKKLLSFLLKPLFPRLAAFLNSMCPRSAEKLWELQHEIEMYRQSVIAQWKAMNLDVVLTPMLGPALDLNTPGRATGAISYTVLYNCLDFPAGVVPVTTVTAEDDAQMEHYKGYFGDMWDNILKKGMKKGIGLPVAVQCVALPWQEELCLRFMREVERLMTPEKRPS
runDescription: In vitro competitive activity-based protein profiling (gel-based, FP-Rh or HT-01 probe)
Assay type: biochemical
condition: 1 μM inhibitor; read-out: % Inhibition at 1 μM, B = FAAH

Solved entries:
compoundStructureString: CCN(Cc1ccccc1Cl)C(=O)n1cc(Cl)cn1
inhibition at 1 µM: < 25%
//
compoundStructureString: O=C(c1cnn(C(=O)N2CCN(Cc3ccncc3)CC2)c1)N1CCCCC1
inhibition at 1 µM: < 25%

In: Which inhibition at 1 µM value is on record for CN(Cc1cccc(-c2ccncc2)c1)C(=O)n1cc(-c2ccccc2)cn1 ?
Out: > 75%

In: Which inhibition at 1 µM value is on record for CN(Cc1cccc(-c2ccncc2)c1)C(=O)n1cc(C(F)(F)F)cn1 ?
Out: > 75%

In: Which inhibition at 1 µM value is on record for Cc1cc(N2CCN(C(=O)n3cc(-c4ccccc4)cn3)CC2)c2ccccc2n1 ?
Out: > 75%

In: Which inhibition at 1 µM value is on record for Cc1cc(N2CCN(C(=O)n3cc(C#N)cn3)CC2)c2ccccc2n1 ?
Out: > 75%

In: Which inhibition at 1 µM value is on record for N#Cc1cnn(C(=O)N2CCCN(Cc3ccccc3)CC2)c1 ?
Out: > 75%

In: Which inhibition at 1 µM value is on record for CC(=O)N(C)CCN(C)C(=O)n1cc(C(F)(F)F)cn1 ?
Out: < 25%

In: Which inhibition at 1 µM value is on record for CN1CCN(C(=O)n2cc(C#N)cn2)CC1 ?
Out: 25 to 75%

###

systemTested: MAGL (Mus musculus)
Construct: Proteomes (mouse brain membrane fraction or cell lysates); from tissue; host or cells: mouse brain membrane fraction (or cell lysates, not specified)
Sequence (O35678 whole entry): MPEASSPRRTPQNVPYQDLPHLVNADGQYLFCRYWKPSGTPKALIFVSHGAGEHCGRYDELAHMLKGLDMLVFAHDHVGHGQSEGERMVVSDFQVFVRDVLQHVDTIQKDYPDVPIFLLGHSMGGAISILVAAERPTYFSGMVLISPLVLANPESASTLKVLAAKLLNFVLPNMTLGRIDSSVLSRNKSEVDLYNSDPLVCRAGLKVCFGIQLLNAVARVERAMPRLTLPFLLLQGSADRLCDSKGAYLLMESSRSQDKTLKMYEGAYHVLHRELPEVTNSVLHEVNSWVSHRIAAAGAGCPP
runDescription: In vitro competitive activity-based protein profiling (gel-based, FP-Rh or HT-01 probe)
Type: biochemical
condition: 1 μM inhibitor; gel-based competitive ABPP
Below, each entry is listed with its recorded inhibition at 1 µM.

molecule: Cc1ccccc1CN1CCN(C(=O)n2cc(C(F)(F)F)cn2)CC1 [Example 277]
result: > 75%
--
molecule: N#Cc1cnn(C(=O)N2CCN(Cc3ccc(C(=O)N4CCC4)cc3Cl)CC2)c1 [Example 283]
result: > 75%
--
molecule: O=C(N1CCN(Cc2ccccc2C(F)(F)F)CC1)n1cc(C(F)(F)F)cn1 [Example 279]
result: > 75%
--
molecule: N#Cc1cnn(C(=O)N2CCN(Cc3ccc(C(=O)N4CCC4)cc3F)CC2)c1 [Example 285]
result: > 75%
--
molecule: CCN(Cc1cccc(N2CCOCC2)c1)C(=O)n1cc(Cl)cn1 [Example 266]
result: < 25%

In: Missing value: inhibition at 1 µM, MAGL (Mus musculus), entry CCN(Cc1ccc(Cl)cc1)C(=O)n1cc(C(F)(F)F)cn1 [Example 253] . Fill in?
Out: 25 to 75%

In: Missing value: inhibition at 1 µM, MAGL (Mus musculus), entry CCN(Cc1cccc(OC)c1)C(=O)n1cc(C(F)(F)F)cn1 [Example 250] . Fill in?
Out: > 75%

In: Missing value: inhibition at 1 µM, MAGL (Mus musculus), entry CCN(Cc1cccc(OC)c1)C(=O)n1cc(C)cn1 [Example 251] . Fill in?
Out: < 25%

In: Missing value: inhibition at 1 µM, MAGL (Mus musculus), entry O=C(N1CCN(Cc2cccc(OCc3ccccc3)c2)CC1)n1cccn1 [Example 296] . Fill in?
Out: > 75%

###

systemTested: MAGL (Mus musculus)
Construct: Proteomes (mouse brain membrane fraction or cell lysates); from tissue; host or cells: mouse brain membrane fraction (or cell lysates, not specified)
runDescription: In vitro competitive activity-based protein profiling (gel-based, FP-Rh or HT-01 probe)
Format: biochemical
condition: 10 μM inhibitor
Below, each entry is listed with its recorded inhibition at 10 µM.

Solved entries:
compoundStructureString: O=C(N1CCCCC1)n1cc(C(F)(F)F)cn1
inhibition at 10 µM: > 75%
//
compoundStructureString: Cc1ccccc1-c1cnn(C(=O)N2CCN(Cc3c(N4CCCC4)cccc3C(F)(F)F)CC2)c1
inhibition at 10 µM: < 25%
//
compoundStructureString: O=C(c1cnn(C(=O)N2CCN(Cc3ccc4c(c3)OCO4)CC2)c1)N1CCOCC1
inhibition at 10 µM: > 75%

In: Which inhibition at 10 µM value is on record for O=C(N1CCOCC1)n1cc(Cl)cn1 ?
Out: < 25%

In: Which inhibition at 10 µM value is on record for Cc1cnn(C(=O)NCCCc2ccccc2)c1 ?
Out: < 25%

###

Below, each entry is listed with its recorded inhibition at 1 µM.
systemTested: ABHD6 (Mus musculus, UniProt Q8R2Y0)
Construct: Proteomes (mouse brain membrane fraction or cell lysates); from tissue; host or cells: mouse brain membrane fraction (or cell lysates, not specified)
Sequence (Q8R2Y0 1-336): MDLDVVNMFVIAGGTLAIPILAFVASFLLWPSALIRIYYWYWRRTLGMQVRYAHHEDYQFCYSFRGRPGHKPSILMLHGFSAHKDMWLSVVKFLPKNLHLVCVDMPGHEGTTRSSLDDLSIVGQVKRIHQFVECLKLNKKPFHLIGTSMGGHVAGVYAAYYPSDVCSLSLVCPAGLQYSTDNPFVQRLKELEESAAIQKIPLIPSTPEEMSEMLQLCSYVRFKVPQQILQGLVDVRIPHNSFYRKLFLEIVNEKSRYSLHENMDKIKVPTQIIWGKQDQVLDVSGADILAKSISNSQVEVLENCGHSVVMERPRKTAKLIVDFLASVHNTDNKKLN
runDescription: In vitro competitive activity-based protein profiling (gel-based, FP-Rh or HT-01 probe)
Assay type: biochemical
condition: 1 μM inhibitor; read-out: % Inhibition at 1 μM, C = ABHD6
Procedure: In Vitro Competitive Activity-Based Protein Profiling. Proteomes (mouse brain membrane fraction or cell lysates) (50 μL, 1.0 mg/mL total protein concentration) were preincubated with varying concentrations of inhibitors at 37° C. […] Following gel imaging, serine hydrolase activity was determined by measuring fluorescent intensity of gel bands corresponding to MAGL, ABHD6, FAAH, and PLA2G7 using ImageJ 1.43u software.

compoundStructureString: Cc1cc(N2CCN(C(=O)n3cc(C#N)cn3)CC2)c2ccccc2n1
inhibition at 1 µM: > 75%

compoundStructureString: O=C(N1CCCCC1)n1cc(C(F)(F)F)cn1
inhibition at 1 µM: > 75%

compoundStructureString: O=C(c1cnn(C(=O)N2CCN(Cc3ccc4c(c3)OCO4)CC2)c1)N1CCC1
inhibition at 1 µM: 25 to 75%

compoundStructureString: Cc1cc(-c2ccccc2)ccc1CN1CCN(C(=O)n2cc(C(F)(F)F)cn2)CC1
inhibition at 1 µM: > 75%

compoundStructureString: O=C(N1CCN(Cc2ccc(Cl)c(Cl)c2)CC1)n1cc(Cl)cn1
inhibition at 1 µM: > 75%

compoundStructureString: CN(Cc1cccc(-c2ccncc2)c1)C(=O)n1cc(C#N)cn1
inhibition at 1 µM: > 75%

In: Which inhibition at 1 µM value is on record for O=C(c1cnn(C(=O)N2CCN(Cc3ccncc3)CC2)c1)N1CCCCC1 ?
Out: 25 to 75%

In: Which inhibition at 1 µM value is on record for CCN(Cc1ccc(OC)cc1)C(=O)n1cc(Cl)cn1 ?
Out: < 25%

In: Which inhibition at 1 µM value is on record for O=C(N1CCN(c2ccc(N3CCOCC3)cc2)CC1)n1cc(C(F)(F)F)cn1 ?
Out: > 75%

In: Which inhibition at 1 µM value is on record for O=C(N1CCN(C(c2ccc(Cl)cc2)c2ccc(Cl)cc2)CC1)n1cc(-c2ccc(C(F)(F)F)cc2)cn1 ?
Out: > 75%

In: Which inhibition at 1 µM value is on record for CS(=O)(=O)N1CCN(C(=O)n2cc(Cl)cn2)CC1 ?
Out: > 75%
